B1: CPOX (parent)
chain: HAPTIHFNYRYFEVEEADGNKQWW

variants of: B1; assay: protein stability index of a GFP-peptide fusion (GPS, HEK-293T) (PSI 1-6); higher = more stable; conditions: c terminus: a fixed tail appended;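 further: lentivirally expressed fusions sorted by FACS into six bins by GFP to DsRed ratio, PSI derived from sequencing read proportions per bin multiplied by bin number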
// n strictly below 2 in protein stability index; y otherwise

Solved entries:
| mutationKey | discreteLabel |
| --- | --- |
| I5D | y |
| P3T | y |
| D18Y | n |
| F7M | y |
| V14S | y |
| W23A | y |
| R10Q | y |
| F7S | y |
| E15A | n |
| W24I | y |

In the following, a different variant is considered.
INPUT: Record H1C ; criterion: protein stability index no lower than 2. Met?
OUTPUT: y
